- system: T1, αBPal C-terminal peptide, second binding (Homo sapiens, not fully specified)
- T1 chain: ERTIPITRE
- procedureDetails: ion-mobility native mass spectrometry titration
pKd: −log10 of the molar value. Where no end group is shown, it is not given here.
metric: pKd

[[record]]
binder = "αB-crystallin core domain (αBDom) dimer 68-153 (protein) MRLEKDRFSVNLDVKHFSPEELKVKVLGDVIEVHGKHEERQDEHGFISREFHRKYRIPADVDPLTITSSLSSDGVLTVNGPRKQVS"
readoutvalue = 3.82


Measured values drawn from paper PMC3638394 for this set.
